Taken from the Deep4Chem optical property database.

Assay: photoluminescence quantum yield (fraction); solvent given as SMILES
Details: in C1CCOC1
Lab note: compare photoluminescence quantum yield with 0.3, writing Satisfied if less and Not satisfied if equal or more.

Observe how each entry below is paired with its result.
[
  {
    "compound": "CN(C)c1ccc(-c2nc3c(c4c2-c2ccccc2CC4)-c2ccccc2CC3)cc1",
    "assigned.class": "Not satisfied"
  },
  {
    "compound": "CCN1C(=O)C(C2C(=O)c3c4ccccc4cc4cc5ccccc5c2c34)SC1=S (stereo not drawn)",
    "assigned.class": "Satisfied"
  },
  {
    "compound": "Cc1ccc(C2=C3C=C4C(=[N+]3[B-](F)(F)n3c2cc2c3-c3ccccc3C23c2ccccc2-c2ccccc23)c2ccccc2C42c3ccccc3-c3ccccc32)cc1",
    "assigned.class": "Not satisfied"
  }
]

[Q] Does CC(C)(C)c1ccc(-c2cc3c4c(c2)CCc2cc(-c5ccc(C(C)(C)C)cc5)cc(c2-4)CC3)cc1 have photoluminescence quantum yield strictly under 0.3?
[A] Not satisfied

---

Assay: photoluminescence quantum yield (fraction); solvent given as SMILES
Conditions: in ClC(Cl)Cl
Please go through the items and note down their photoluminescence quantum yield.
Give bare numbers.

Illustrative cases are given below, each with its answer.
[
  {
    "line.notation": "CCCCCCN1C(=O)c2cccc3c(-c4ccc(C)s4)ccc(c23)C1=O",
    "photoluminescence quantum yield": 0.78
  },
  {
    "line.notation": "O=C(O)c1ccccc1Nc1cccc(C(F)(F)F)c1",
    "photoluminescence quantum yield": 0.022
  },
  {
    "line.notation": "Cc1oc(C)c2c1C=C(C=O)CC(C=O)=C2",
    "photoluminescence quantum yield": 0
  },
  {
    "line.notation": "CCCCCCCN1C(=CC2=C([O-])C(=CC3=[N+](CCCCCCC)c4ccccc4C3(C)C)C2=C(C#N)C#N)C(C)(C)c2ccccc21",
    "photoluminescence quantum yield": 0.18
  },
  {
    "line.notation": "CC(C)(C)c1ccc(Oc2cc3c4c(cc(Oc5ccc(C(C)(C)C)cc5)c5c6c(Oc7ccc(C(C)(C)C)cc7)cc7c8c(cc(Oc9ccc(C(C)(C)C)cc9)c(c2c45)c86)C(=O)N(c2ccccc2)C7=O)C(=O)N(c2ccccc2)C3=O)cc1",
    "photoluminescence quantum yield": 0.86
  },
  {
    "line.notation": "CCCCCCCCCCOc1cc(OCCCCCCCCCC)cc(C2=C3C(C)=CC(/C=C/c4ccc(OC)cc4)=[N+]3[B-](F)(F)n3c(/C=C/c4ccc(OC)cc4)cc(C)c32)c1",
    "photoluminescence quantum yield": 0.37
  },
  {
    "line.notation": "CC(C)(C)c1ccc2oc3nc4oc5ccc(N6c7ccccc7Sc7ccccc76)cc5c4cc3c2c1",
    "photoluminescence quantum yield": 0.016
  },
  {
    "line.notation": "COc1cc(N(c2ccccc2)c2ccc(C=C(C#N)C#N)c(OC)c2)ccc1C=C(C#N)C#N",
    "photoluminescence quantum yield": 0.076
  }
]

List photoluminescence quantum yield for every entry below, keeping the order given.
1. CN(C)c1ccc(/C=C/c2nc3c4ccccc4c4ccccc4c3[nH]2)cc1
2. CCOC(=O)/C=C/C1=C(c2ccc(C)cc2)C2=Nc3c(-c4ccc(C)cc4)cc(-c4ccc(C)cc4)n3[B-](F)(F)[N+]2=C1c1ccc(C)cc1
3. CC(C)(C)NC(=O)c1c([Si](C)(C)C)cc2ccc3cccc4ccc1c2c34
4. CC1(C)c2ccccc2N(c2ccc(S(=O)(=O)c3ccc(N4c5ccccc5C(C)(C)c5ccccc54)cc3)cc2)c2ccccc21
5. CCN(CC)c1ccc2c(c1)oc(=O)c1c(-c3ccccc3C(=O)O)c3ccc(=[N+](CC)CC)cc-3oc12
6. COc1ccc(-c2nc(-c3ccc(OC)cc3)n3ccccc23)cc1
7. N#Cc1c(C#N)c2cc(F)ccc2c2ccc(F)cc12

[A]
[0.035, 0.24, 0.151, 0.8, 0.51, 0.22, 0.08]
